- Test system: 439559-082-T-J2-PDC spheroids viability
- ASSAY NOTES: Anticancer human tumor 439559-082-T-J2-PDC patient-derived colon adenocarcinoma cell line growth inhibition [GQUAD]
- EXPERIMENTAL CONDITIONS: second compound 1 µM; first compound 10 µM; stronger effect = lower value
PARAMETER MEASURED: viability, T/C (%)
Express it in %; write the number only.

Just so you know, measured viability, T/C for COc1ncnc(C2CC2)c1-c1ncc2cnn(Cc3ccc(-c4nc(C(F)(F)F)cn4C(C)C)cc3)c2n1 + Cc1cnc(CNC(=O)c2c(=O)c3ccc(N4CCCN(C)CC4)nc3n3c2sc2ccccc23)cn1 came out at 73

# viability, T/C (compound: O=C(c1cc(Cc2n[nH]c(=O)c3ccccc23)ccc1F)N1CCN(C(=O)C2CC2)CC1 + Cc1cnc(CNC(=O)c2c(=O)c3ccc(N4CCCN(C)CC4)nc3n3c2sc2ccccc23)cn1 ) is 81.7

The measured viability, T/C associated with COc1cc(C2c3cc4c(cc3C(OC3OC5COC(C)OC5C(O)C3O)C3COC(=O)C23)OCO4)cc(OC)c1O (stereo not drawn) + Cc1[nH]c2ccc(F)cc2c1-c1nc2c3cccnc3c3ncccc3c2[nH]1 reads 58.9

###

- Tested on: 439559-082-T-J2-PDC spheroids viability
- ASSAY NOTES: Anticancer human tumor 439559-082-T-J2-PDC cell line growth inhibition [GQUAD];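 also: spheroids exposed to the agents for 7 days before readout; percent of luminescence signal in DMSO vehicle wells taken as 100% viability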
- EXPERIMENTAL CONDITIONS: second compound 0.0316 µM; first compound 0.1 µM; stronger effect = lower value
Decision: viability, T/C beneath 90% gives condition met; viability, T/C meeting or exceeding 90% gives condition not met.

Request: Criterion: viability, T/C strictly below 90%. Is it met by Nc1ccn(C2OC(CO)C(O)C2(F)F)c(=O)n1 (stereo not given) + CN(C)c1ccc(Nc2c3ccc(NC(=O)CCN4CCCC4)cc3nc3cc(NC(=O)CCN4CCCC4)ccc23)cc1 ?
Response: condition met

Request: Consider the molecule O=C(c1cc(Cc2n[nH]c(=O)c3ccccc23)ccc1F)N1CCN(C(=O)C2CC2)CC1 + Cc1[nH]c2ccc(F)cc2c1-c1nc2c3cccnc3c3ncccc3c2[nH]1 . Is its viability, T/C strictly less than 90%?
Response: condition not met

Request: Problem: For the molecule CC(C)n1c(=O)n(C)c2cnc3cc(F)c(-c4ccc(OCCCN5CCCCC5)nc4)cc3c21 + CN(C)c1ccc(Nc2c3ccc(NC(=O)CCN4CCCC4)cc3nc3cc(NC(=O)CCN4CCCC4)ccc23)cc1 , is viability, T/C under 90%?
Response: condition not met

Request: Check if viability, T/C falls below 90% for CC(C)(O)C1CCC(Nc2ccc3ncc(-c4cccc(C(F)(F)F)c4)n3n2)CC1 (stereo not given) + CN(C)c1ccc(Nc2c3ccc(NC(=O)CCN4CCCC4)cc3nc3cc(NC(=O)CCN4CCCC4)ccc23)cc1 .
Response: condition not met

###

- System: 439559-082-T-J2-PDC spheroids viability
- ASSAY NOTES: Anticancer human tumor 439559-082-T-J2-PDC cell line growth inhibition [GQUAD];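 also: spheroids exposed to the agents for 7 days before readout; percent of luminescence signal in DMSO vehicle wells taken as 100% viability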
- EXPERIMENTAL CONDITIONS: second compound 1 µM; first compound 10 µM; stronger effect = lower value
Strictly below 90% in viability, T/C: Satisfied. Otherwise: Not satisfied.

Request: viability, T/C strictly < 90% for this compound? COc1ccc([C@@H](O)c2cc(-c3ncnc4cc(N5CCOCC5)ccc34)c(F)cc2Cl)nn1 + CN(C)c1ccc(Nc2c3ccc(NC(=O)CCN4CCCC4)cc3nc3cc(NC(=O)CCN4CCCC4)ccc23)cc1
Response: Satisfied

Request: Strictly below 90%: is that where viability, T/C of CC(C)n1c(=O)n(C)c2cnc3cc(F)c(-c4ccc(OCCCN5CCCCC5)nc4)cc3c21 + Cc1[nH]c2ccc(F)cc2c1-c1nc2c3cccnc3c3ncccc3c2[nH]1 sits?
Response: Not satisfied

Request: I wonder whether CC1COCCN1c1cc(-c2ccnn2C)c2ccnc(-c3ccn[nH]3)c2n1 (stereo not given) + Cc1cnc(CNC(=O)c2c(=O)c3ccc(N4CCCN(C)CC4)nc3n3c2sc2ccccc23)cn1 has viability, T/C below 90%. Can you tell?
Response: Satisfied

Request: In plain terms, does O=C(c1cc(Cc2n[nH]c(=O)c3ccccc23)ccc1F)N1CCN(C(=O)C2CC2)CC1 + CN(C)c1ccc(Nc2c3ccc(NC(=O)CCN4CCCC4)cc3nc3cc(NC(=O)CCN4CCCC4)ccc23)cc1 come in under 90% for viability, T/C?
Response: Not satisfied

Request: Input Cc1cccc(N(C)C(=O)C2C(O)CCN2c2nc(C)cc(C(F)(F)F)c2C#N)c1 (stereo not given) + CN(C)c1ccc(Nc2c3ccc(NC(=O)CCN4CCCC4)cc3nc3cc(NC(=O)CCN4CCCC4)ccc23)cc1 ; condition: viability, T/C strictly below 90%. Does it hold?
Response: Not satisfied
